Biological target: Proliferating cell nuclear antigen (Homo sapiens, UniProt P12004)
Sequence (P12004 whole entry): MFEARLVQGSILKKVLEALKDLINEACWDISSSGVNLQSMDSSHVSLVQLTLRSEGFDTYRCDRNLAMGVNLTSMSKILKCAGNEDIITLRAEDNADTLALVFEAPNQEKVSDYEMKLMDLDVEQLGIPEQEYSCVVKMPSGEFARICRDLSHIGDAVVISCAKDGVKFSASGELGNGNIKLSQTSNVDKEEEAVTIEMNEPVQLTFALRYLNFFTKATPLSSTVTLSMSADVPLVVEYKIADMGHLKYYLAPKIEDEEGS
Experiment: Binding affinity to N-terminal recombinant 6His-tagged PCNA (unknown origin) extracted from Escherichia coli BL21 (DE3) by fluorescence polarization assay
parameter: log10 Ki (log10 of the value in nM)
Please keep in mind that the values are log10 of Ki expressed in nM.

Guide cases for log10 Ki, answers given:
Summary: N[C@H](CNC(=O)NC(=O)CCN1CCOCC1)Cc1cc(I)c(Oc2ccc(O)cc2)c(I)c1 , Proliferating cell nuclear antigen (Homo sapiens, UniProt P12004), log10 Ki = 2.04

The recorded log10 Ki with Proliferating cell nuclear antigen (Homo sapiens, UniProt P12004) for NCc1ccc(CN(CC(N)=O)C(=O)CN(CCO)C(=O)CN[C@H](CO)Cc2cc(I)c(Oc3ccc(O)cc3)c(I)c2)cc1 was 2.06

With Proliferating cell nuclear antigen (Homo sapiens, UniProt P12004) as the test system, CNC(=O)CCc1cc(I)c(Oc2ccc(OC)cc2)c(I)c1 showed log10 Ki of 3.21

Next:
Response field log10 Ki (Proliferating cell nuclear antigen (Homo sapiens, UniProt P12004)) for item Cc1cc(Oc2c(I)cc(C[C@H](N)CO)cc2I)ccc1O : 2.24

Entry NC[C@@H](N)Cc1cc(I)c(Oc2ccc(O)cc2)c(I)c1 : log10 Ki on Proliferating cell nuclear antigen (Homo sapiens, UniProt P12004) = 2.38

----------
Biological target: Proliferating cell nuclear antigen (Homo sapiens)
Test: Binding affinity to N-terminal recombinant 6His-tagged PCNA (unknown origin) extracted from Escherichia coli BL21 (DE3) by fluorescence polarization assay
Ki for assorted compounds
Write the answer as a number in nM, unit excluded.

# Ki measured on Proliferating cell nuclear antigen (Homo sapiens) for item NC(=O)CN(Cc1ccc(O)cc1)C(=O)CN(CCO)C(=O)CN[C@H](CO)Cc1cc(I)c(Oc2ccc(O)cc2)c(I)c1 = 40

Sample COc1ccc(S(=O)(=O)N[C@H](CO)Cc2cc(I)c(Oc3ccc(O)cc3)c(I)c2)cc1 , system: Proliferating cell nuclear antigen (Homo sapiens). Its Ki is 930

For the compound CNC(=O)Cc1cc(I)c(Oc2ccc(O)cc2)c(I)c1 , the measured Ki on Proliferating cell nuclear antigen (Homo sapiens) was 780

NC(=O)CN(Cc1ccc2c(c1)OCO2)C(=O)CN(CCO)C(=O)CN[C@H](CO)Cc1cc(I)c(Oc2ccc(O)cc2)c(I)c1 on Proliferating cell nuclear antigen (Homo sapiens) gives Ki = 170

Case O=S(=O)(N[C@H](CO)Cc1cc(I)c(Oc2ccc(O)cc2)c(I)c1)c1ccccc1 , Proliferating cell nuclear antigen (Homo sapiens), Ki recorded as 570

Per the reported Proliferating cell nuclear antigen (Homo sapiens) data, CCNC(=O)Cc1cc(I)c(Oc2ccc(O)cc2)c(I)c1 has Ki of 630

Proliferating cell nuclear antigen (Homo sapiens) data for Cc1noc(C)c1S(=O)(=O)N[C@H](CO)Cc1cc(I)c(Oc2ccc(O)cc2)c(I)c1 ; its Ki: 150

Noted Ki for N[C@H](CO)Cc1cc(I)c(Oc2ccc(O)c(I)c2)c(I)c1 , tested on Proliferating cell nuclear antigen (Homo sapiens): 60

----------
System: Jurkat
Assay: Antiproliferative activity against human Jurkat cells assessed as reduction in cell growth measured for 48 hrs by MTT assay
Assay type: functional, cell-based
parameter: pIC50
Scale for pIC50: -log10 of concentration given in mol/L; no unit attached.

pIC50 reported for this compound COc1cc(C(=O)N2CCC(N3CCN(C)CC3)CC2)ccc1Nc1ncc2c(n1)N(C)c1ccccc1C(=O)N2C : 5.23
